# maps each entry to its pEC50
- assayed_system: Thyroid hormone receptor alpha (Homo sapiens)
- Sequence (P10827 whole entry): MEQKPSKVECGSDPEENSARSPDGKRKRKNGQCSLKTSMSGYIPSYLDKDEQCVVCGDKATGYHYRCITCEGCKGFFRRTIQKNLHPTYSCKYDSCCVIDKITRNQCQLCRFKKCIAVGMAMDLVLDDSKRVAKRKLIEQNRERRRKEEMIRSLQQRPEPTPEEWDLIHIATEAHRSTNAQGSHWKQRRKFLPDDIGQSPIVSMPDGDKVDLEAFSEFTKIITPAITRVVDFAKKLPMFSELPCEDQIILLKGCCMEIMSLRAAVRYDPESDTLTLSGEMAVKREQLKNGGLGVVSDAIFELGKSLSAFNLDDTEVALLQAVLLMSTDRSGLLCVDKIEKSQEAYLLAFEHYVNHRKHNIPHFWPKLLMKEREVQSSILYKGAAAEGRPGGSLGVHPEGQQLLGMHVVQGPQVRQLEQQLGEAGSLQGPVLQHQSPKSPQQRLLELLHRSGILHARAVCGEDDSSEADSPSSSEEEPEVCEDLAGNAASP
- assay_method_text: Agonist activity at human recombinant TRalpha1 transfected in CV-1 cells after 8 to 10 hrs by alkaline phosphatase reporter gene assay
To interpret pEC50, take it as minus log10 of a concentration measured in moles per litre.

Recorded results for 3 molecules are shown here.
INSERT INTO measurements (compound_smiles, assayed_system, attribute_measured, result_value) VALUES
  ('Cc1c(CCCCC(=O)O)c2ccccc2n1Cc1ccc(O)c(C(C)C)c1', 'Thyroid hormone receptor alpha (Homo sapiens)', 'pEC50', 7.00),
  ('Cc1c(CCCC(=O)O)c2ccccc2n1Cc1ccc(O)c(C(C)C)c1', 'Thyroid hormone receptor alpha (Homo sapiens)', 'pEC50', 6.74),
  ('Cc1c(CCC(=O)O)c2ccccc2n1Cc1ccc(O)c(C(C)C)c1', 'Thyroid hormone receptor alpha (Homo sapiens)', 'pEC50', 7.41);

Now, please, on to the next molecule.
Param item = `Cc1c(CC(=O)O)c2ccccc2n1Cc1ccc(O)c(C(C)C)c1` ; retrieve measured pEC50.
6.35

* * *

Recorded EC50 values for a group of molecules are listed next.
- assayed_system: Thyroid hormone receptor beta (Homo sapiens, UniProt P10828)
- Sequence (P10828 whole entry, the tested form may be a part): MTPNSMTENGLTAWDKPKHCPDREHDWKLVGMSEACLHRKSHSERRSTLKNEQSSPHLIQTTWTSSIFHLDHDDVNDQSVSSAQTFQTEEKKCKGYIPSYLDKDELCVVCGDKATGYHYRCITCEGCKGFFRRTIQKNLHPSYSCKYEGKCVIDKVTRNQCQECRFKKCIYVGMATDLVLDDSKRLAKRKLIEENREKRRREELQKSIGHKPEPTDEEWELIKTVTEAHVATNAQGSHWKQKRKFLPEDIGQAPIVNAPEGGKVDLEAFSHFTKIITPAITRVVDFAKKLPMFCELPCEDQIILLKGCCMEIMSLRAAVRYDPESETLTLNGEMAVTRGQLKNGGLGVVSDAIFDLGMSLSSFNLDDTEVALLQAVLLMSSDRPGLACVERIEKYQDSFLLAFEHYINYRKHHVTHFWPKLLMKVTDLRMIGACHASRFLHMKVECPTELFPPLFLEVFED
- assay_method_text: Agonist activity at human recombinant TRbeta1 transfected in human HepG2 cells after 8 to 10 hrs by alkaline phosphatase reporter gene assay
- Assay type: cell-based
Number in nM, nothing else.

INSERT INTO assay_data (compound_smiles, result_value) VALUES
  ('Cc1cc2c(NC(=O)CC(=O)O)cccc2n1Cc1ccc(O)c(C(C)C)c1', 220),
  ('CC(C)c1cc(Cn2ccc3c(NC(=O)C(=O)O)cccc32)ccc1O', 550);

Can you look up EC50 on Thyroid hormone receptor beta (Homo sapiens, UniProt P10828) for `Cc1cc2c(NC(=O)C(=O)O)cccc2n1Cc1ccc(O)c(C(C)C)c1` ?
110

Missing value: EC50, Thyroid hormone receptor beta (Homo sapiens, UniProt P10828), entry `Cc1ccc(NC(=O)CC(=O)O)c2ccn(Cc3ccc(O)c(C(C)C)c3)c12` . Fill in?
1300

Look up EC50 with Thyroid hormone receptor beta (Homo sapiens, UniProt P10828) for this molecule: `Cc1ccc(NC(=O)C(=O)O)c2ccn(Cc3ccc(O)c(C(C)C)c3)c12`
190

* * *

# Lookup of reported log10(IC50) keyed by entry
- assayed_system: Thyroid hormone receptor beta (Homo sapiens, UniProt P10828)
- assay_method_text: Displacement of [125I]-Triiodothyronine from human recombinant TRbeta1 ligand binding domain after 2 to 3 hrs by beta counting
Hi team, quick reminder: these entries are log10 of IC50 (nM).

Recorded results for 5 compounds are shown here.
INSERT INTO measurements (compound_smiles, assayed_system, attribute_measured, result_value) VALUES
  ('Cc1ccc(NC(=O)CC(=O)O)c2ccn(Cc3ccc(O)c(C(C)C)c3)c12', 'Thyroid hormone receptor beta (Homo sapiens, UniProt P10828)', 'log10(IC50)', 2.38),
  ('Cc1cc2cc(NC(=O)C(=O)O)ccc2n1Cc1ccc(O)c(C(C)C)c1', 'Thyroid hormone receptor beta (Homo sapiens, UniProt P10828)', 'log10(IC50)', 3.18),
  ('Cc1ccc(NC(=O)C(=O)O)c2ccn(Cc3ccc(O)c(C(C)C)c3)c12', 'Thyroid hormone receptor beta (Homo sapiens, UniProt P10828)', 'log10(IC50)', 1.73),
  ('Cc1c(C(=O)NCC(=O)O)c2ccccc2n1Cc1ccc(O)c(C(C)C)c1', 'Thyroid hormone receptor beta (Homo sapiens, UniProt P10828)', 'log10(IC50)', 3.04),
  ('Cc1c(CCCCC(=O)O)c2ccccc2n1Cc1ccc(O)c(C(C)C)c1', 'Thyroid hormone receptor beta (Homo sapiens, UniProt P10828)', 'log10(IC50)', 3.15);

What value of log10(IC50) has been recorded for this entry: `Cc1c(CCC(=O)O)c2ccccc2n1Cc1ccc(O)c(C(C)C)c1`
2.88

Request the reported log10(IC50) associated with `Cc1c(CC(=O)NCC(=O)O)c2ccccc2n1Cc1ccc(O)c(C(C)C)c1`
2.63

log10(IC50) for `Cc1cc2c(NC(=O)CC(=O)O)cccc2n1Cc1ccc(O)c(C(C)C)c1` ?
2.36

Would you mind telling me what log10(IC50) value was observed for `Cc1c(CCCC(=O)O)c2ccccc2n1Cc1ccc(O)c(C(C)C)c1` ?
2.46
